# tgt: Phosphatidylinositol 4-kinase beta (Homo sapiens, UniProt Q9UBF8)
# Sequence (Q9UBF8 whole entry): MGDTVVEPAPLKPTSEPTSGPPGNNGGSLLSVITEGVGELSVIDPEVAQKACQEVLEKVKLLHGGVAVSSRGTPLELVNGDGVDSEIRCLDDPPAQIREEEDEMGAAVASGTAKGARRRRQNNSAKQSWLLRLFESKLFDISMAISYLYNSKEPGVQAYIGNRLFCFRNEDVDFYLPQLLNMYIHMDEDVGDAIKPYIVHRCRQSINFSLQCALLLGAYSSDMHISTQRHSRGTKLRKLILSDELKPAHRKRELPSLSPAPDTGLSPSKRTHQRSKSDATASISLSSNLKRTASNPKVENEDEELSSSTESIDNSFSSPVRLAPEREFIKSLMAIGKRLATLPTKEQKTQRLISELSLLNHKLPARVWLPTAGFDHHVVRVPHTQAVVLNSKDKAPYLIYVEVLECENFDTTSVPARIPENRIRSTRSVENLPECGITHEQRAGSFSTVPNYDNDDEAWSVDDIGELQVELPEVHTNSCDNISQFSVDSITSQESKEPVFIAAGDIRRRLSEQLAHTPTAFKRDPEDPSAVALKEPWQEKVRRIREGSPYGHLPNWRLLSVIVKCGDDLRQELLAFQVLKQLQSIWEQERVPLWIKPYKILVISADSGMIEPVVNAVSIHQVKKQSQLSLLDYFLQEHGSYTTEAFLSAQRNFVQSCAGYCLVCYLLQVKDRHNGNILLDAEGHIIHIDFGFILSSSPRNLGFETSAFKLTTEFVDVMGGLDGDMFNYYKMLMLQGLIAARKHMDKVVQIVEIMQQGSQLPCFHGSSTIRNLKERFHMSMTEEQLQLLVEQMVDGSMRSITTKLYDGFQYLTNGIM
pKd: −log10 of the molar value.
reportedEndpoint: pKd

For this molecule ( Nc1cc(C(F)F)c(-c2nc(C3CCOCC3)nc(N3C4CCC3COC4)n2)cn1 ), measured pKd is < 4.52

###

# assayExplanation: Metabolic stability in Beagle dog hepatocytes assessed as half life at 5 microM incubated upto 180 mins by LC/MS analysis
# Format: ADME, cell-based, Canis lupus familiaris, Hepatocyte
reportedEndpoint: half-life at 5 µM (min)
Express your answer in min, writing the number without its unit.

For this molecule ( CCOc1ccc2ccc(=O)oc2c1 ), measured half-life at 5 µM is 18

###

# assayExplanation: Metabolic stability in human hepatocytes assessed as intrinsic clearance measured per million cells at 5 microM incubated upto 180 mins by LC/MS analysis
# Type: ADME, cell-based, Hepatocyte
# measurementSetup: read-out: CLH
Measured hepatocyte CLint at 5 µM values are reported for all entries that follow.
Express your answer in µL/min/1e6 cells, writing the number without its unit.

smilestext=Nc1cc(C(F)F)c(-c2nc(C3CCOCC3)nc(N3C4CCC3COC4)n2)cn1 measvalue=3.56

For this compound ( CCOc1ccc2ccc(=O)oc2c1 ), measured hepatocyte CLint at 5 µM is 22

###

Measured hepatocyte CLint at 5 µM values are reported for all entries that follow.
# assayExplanation: Metabolic stability in Sprague-Dawley rat hepatocytes assessed as intrinsic clearance measured per million cells at 5 microM incubated upto 180 mins by LC/MS analysis
# Type: ADME, cell-based, Hepatocyte
# measurementSetup: read-out: CLH
Express your answer in µL/min/1e6 cells, writing the number without its unit.

smilestext=Nc1cc(C(F)F)c(-c2nc(C3CCOCC3)nc(N3C4CCC3COC4)n2)cn1 displayunit="µL/min/1e6 cells" measvalue=2.99

With those in mind, consider the next molecule.
For this molecule ( CCOc1ccc2ccc(=O)oc2c1 ), measured hepatocyte CLint at 5 µM is 18

###

# assayExplanation: Metabolic stability in CD-1 mouse hepatocytes assessed as half life at 5 microM incubated upto 180 mins by LC/MS analysis
# Format: ADME, cell-based, Hepatocyte
reportedEndpoint: half-life at 5 µM

smilestext=CCOc1ccc2ccc(=O)oc2c1 measvalue="17 min"

With those in mind, consider the next compound.
For this compound ( Nc1cc(C(F)F)c(-c2nc(C3CCOCC3)nc(N3C4CCC3COC4)n2)cn1 ), measured half-life at 5 µM is > 180 min

###

# tgt: CYP1A1 (Homo sapiens)
# Sequence (P04798 whole entry): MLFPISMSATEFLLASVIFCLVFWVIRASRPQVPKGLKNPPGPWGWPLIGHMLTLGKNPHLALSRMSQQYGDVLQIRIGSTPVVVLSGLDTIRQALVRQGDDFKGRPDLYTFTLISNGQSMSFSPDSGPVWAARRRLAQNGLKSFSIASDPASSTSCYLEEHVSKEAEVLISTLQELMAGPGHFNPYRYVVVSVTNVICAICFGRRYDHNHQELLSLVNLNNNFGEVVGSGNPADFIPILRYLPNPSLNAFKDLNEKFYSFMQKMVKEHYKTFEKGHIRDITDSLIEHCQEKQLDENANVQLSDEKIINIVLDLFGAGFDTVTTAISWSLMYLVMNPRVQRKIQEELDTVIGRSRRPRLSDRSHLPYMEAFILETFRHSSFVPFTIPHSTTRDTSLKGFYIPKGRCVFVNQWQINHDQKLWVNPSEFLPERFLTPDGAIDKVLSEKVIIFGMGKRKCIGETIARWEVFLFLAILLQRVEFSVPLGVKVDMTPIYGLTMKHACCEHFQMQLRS
# assayExplanation: Stability of compound assessed as recombinant human CYP1A1-mediated drug metabolism by measuring compound remaining at 1 uM incubated for 60 mins by LC-MS analysis
# Assay type: ADME
# measurementSetup: read-out: Stability
reportedEndpoint: remaining at 1 h, 1 µM (%)
Express your answer in %, writing the number without its unit.

remaining at 1 h, 1 µM value, target or system CYP1A1 (Homo sapiens), for Nc1cc(C(F)F)c(-c2nc(C3CCOCC3)nc(N3C4CCC3COC4)n2)cn1 : 53.3

###

Measured pKi values are reported for all entries that follow.
# tgt: Serine/threonine-protein kinase mTOR (Homo sapiens, UniProt P42345)
# assayExplanation: Displacement of Alexa fluor 647-labeled kinase tracer 314 from N-terminal GST-fused truncated recombinant human mTOR (1360 to 2549 residues) assessed as inhibition constant by TR-FRET based Lanthascreen kinase activity assay
The value called pKi is obtained by taking minus log10 of the concentration in mol/L.

smilestext=Nc1cc(C(F)F)c(-c2nc(C3=CCOCC3)nc(N3C4CCC3COC4)n2)cn1 measvalue=7.80

With those in mind, consider the next molecule.
For this molecule ( Nc1cc(C(F)F)c(-c2nc(C3CCOCC3)nc(N3C4CCC3COC4)n2)cn1 ), measured pKi is 7.66
